Below, each entry is listed with its recorded Ratio (-BP/+BP), DF-1,000,000.
Tgt: T1, interleukin 18 binding protein (IL-18BP) (UniProt O95998 31-194)
T1 sequence (looked up): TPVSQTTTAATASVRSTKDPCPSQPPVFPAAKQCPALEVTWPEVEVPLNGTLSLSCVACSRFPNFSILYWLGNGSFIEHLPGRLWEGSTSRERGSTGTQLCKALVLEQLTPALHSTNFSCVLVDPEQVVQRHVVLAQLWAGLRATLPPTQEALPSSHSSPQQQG
Test: cell-based or functional assay
API note: the answer field is a bare number with no unit suffix.

Recorded Ratio (-BP/+BP), DF-1,000,000, per entry:
Binder | Ratio (-BP/+BP), DF-1,000,000
IL-18 variant K53N, S55Y (ligand) YFGKLESKLSVIRNLNDQVLFIDQGNRPLFEDMTDSDMRDNAPRTIFIISMYNDYQPRGMAVTISVKSEKISTLSSENKIISFKEMNPPDNIKDTKSDIIFFQRSVPGHDNKMQFESSSYEGYFLASEKERDLFKLILKKEDELGDRSIMFTVQNED | 0.96
IL-18 variant K53H, S55Y (ligand) YFGKLESKLSVIRNLNDQVLFIDQGNRPLFEDMTDSDMRDNAPRTIFIISMYHDYQPRGMAVTISVKSEKISTLSSENKIISFKEMNPPDNIKDTKSDIIFFQRSVPGHDNKMQFESSSYEGYFLASEKERDLFKLILKKEDELGDRSIMFTVQNED | 0.8

Here is the next item to consider.
## Input Query: Ratio (-BP/+BP), DF-1,000,000; subject: IL-18 variant K53S, S55F, T63S, R104K, H109Y (ligand) YFGKLESKLSVIRNLNDQVLFIDQGNRPLFEDMTDSDMRDNAPRTIFIISMYSDFQPRGMAVSISVKSEKISTLSSENKIISFKEMNPPDNIKDTKSDIIFFQKSVPGYDNKMQFESSSYEGYFLASEKERDLFKLILKKEDELGDRSIMFTVQNED
## Output 0.99

Cited source: patent US20240182536A1
